Target: T1, human GDF15 protein (Novoprotein, Cat# DRA26) (human, UniProt Q99988 197-308)
T1 sequence (looked up): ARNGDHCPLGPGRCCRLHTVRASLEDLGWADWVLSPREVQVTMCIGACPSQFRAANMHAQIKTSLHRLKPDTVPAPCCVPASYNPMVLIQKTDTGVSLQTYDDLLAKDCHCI
Test: cell-based or functional assay
Record form. Attribute: IC50 of GDF15 reporter gene activity. Fill in for each entry.
Expressed in nM, but write only the number.

Input: // returns reported IC50 of GDF15 reporter gene activity for input LN06 GDF15 heavy chain single-domain antibody (full-length, VHH joined to human IgG1 Fc) (antibody, V domains shown, expressed in CHO cells; No light chain; also called LN06 full-length) VH: QLQLVESGGGLVQPGGSLRLSCVASGFTLDDYAIGWFRQAPGKGLEGVSCISSSDESTYYADSVKGRFTISRDNAKNTAYLQMNSLKPEDTAIYYCAADTECPVQVTSMAWGQGTQVTVSS
Output: 0.0705

Input: // returns reported IC50 of GDF15 reporter gene activity for input LN25 GDF15 heavy chain single-domain antibody (full-length, VHH joined to human IgG1 Fc) (antibody, V domains shown, expressed in CHO cells; No light chain; also called LN25 full-length) VH: QLQLVESGGGEVQPGGSLRLSCAASGATLDDLSIGWFRQAPGKGLEGVSCISSSDGSTYYADSVKGRFTISRDNAKNTAYLQMNSLRPEDTAVYYCAADREDCPVQPWGIVAGTSRGQGTQVTVSS
Output: 0.0735

Input: // returns reported IC50 of GDF15 reporter gene activity for input LN14 GDF15 heavy chain single-domain antibody (full-length, VHH joined to human IgG1 Fc) (antibody, V domains shown, expressed in CHO cells; No light chain; also called LN14 full-length) VH: QVQLVESGGGLVQPGGSLRLACAASGFTLDAYAVGWFRQAPGKNPEGVSCISSSDGSAYYADSVKGRFTISRDNAKNTVYLQMNSLKPGDTAVYYCAADLSCPVQIATFHSRGQGTQVTVSS
Output: 0.0701

Input: // returns reported IC50 of GDF15 reporter gene activity for input LN13 GDF15 heavy chain single-domain antibody (full-length, VHH joined to human IgG1 Fc) (antibody, V domains shown, expressed in CHO cells; No light chain; also called LN13 full-length) VH: QLQLVESGGGLVQPGGSLRLSCAASGFTLDYYAIGWFRQAPGKGPEAVSCISSSDGSTYYSDSVKGRFTISRDNAKNTVYLQMNSLKPEDTAVYYCAAGEYGSDCPVQVGSWGQGTQVTVSS
Output: 0.0719

Input: // returns reported IC50 of GDF15 reporter gene activity for input LN05 GDF15 heavy chain single-domain antibody (full-length, VHH joined to human IgG1 Fc) (antibody, V domains shown, expressed in CHO cells, Protein A purified; No light chain; also called LN05 full-length) VH: QVQLVESGGGLVQPGGSLRLSCAASGFTLDYYAIGWFRQAPGKGREGVSCISSNDGSTYYSDSVKGRFTTSRDNAKNTVYLQMNSLKPEDTAVYYCAADLTPCPVNPSVDHYWGQGTQVTVSS
Output: 0.0778

Hey, just so you know, these numbers are from patent EP4692116A1.
